molecular target: VLA-4 (Homo sapiens, UniProt P05556+P13612); construct: host or cells: Jurkat clone E6-1; test: Adhesion of Jurkat cells to immobilized VCAM-1 (domains 1-3); format: cell-based; details: adhesion of CFSE-labeled Jurkat cells to recombinant human VCAM-1 (domains 1-3) coated plates; compounds as yielded by solid phase synthesis, purity about 40-90%; read-out: IC50
Sequence (P13612 34-1032): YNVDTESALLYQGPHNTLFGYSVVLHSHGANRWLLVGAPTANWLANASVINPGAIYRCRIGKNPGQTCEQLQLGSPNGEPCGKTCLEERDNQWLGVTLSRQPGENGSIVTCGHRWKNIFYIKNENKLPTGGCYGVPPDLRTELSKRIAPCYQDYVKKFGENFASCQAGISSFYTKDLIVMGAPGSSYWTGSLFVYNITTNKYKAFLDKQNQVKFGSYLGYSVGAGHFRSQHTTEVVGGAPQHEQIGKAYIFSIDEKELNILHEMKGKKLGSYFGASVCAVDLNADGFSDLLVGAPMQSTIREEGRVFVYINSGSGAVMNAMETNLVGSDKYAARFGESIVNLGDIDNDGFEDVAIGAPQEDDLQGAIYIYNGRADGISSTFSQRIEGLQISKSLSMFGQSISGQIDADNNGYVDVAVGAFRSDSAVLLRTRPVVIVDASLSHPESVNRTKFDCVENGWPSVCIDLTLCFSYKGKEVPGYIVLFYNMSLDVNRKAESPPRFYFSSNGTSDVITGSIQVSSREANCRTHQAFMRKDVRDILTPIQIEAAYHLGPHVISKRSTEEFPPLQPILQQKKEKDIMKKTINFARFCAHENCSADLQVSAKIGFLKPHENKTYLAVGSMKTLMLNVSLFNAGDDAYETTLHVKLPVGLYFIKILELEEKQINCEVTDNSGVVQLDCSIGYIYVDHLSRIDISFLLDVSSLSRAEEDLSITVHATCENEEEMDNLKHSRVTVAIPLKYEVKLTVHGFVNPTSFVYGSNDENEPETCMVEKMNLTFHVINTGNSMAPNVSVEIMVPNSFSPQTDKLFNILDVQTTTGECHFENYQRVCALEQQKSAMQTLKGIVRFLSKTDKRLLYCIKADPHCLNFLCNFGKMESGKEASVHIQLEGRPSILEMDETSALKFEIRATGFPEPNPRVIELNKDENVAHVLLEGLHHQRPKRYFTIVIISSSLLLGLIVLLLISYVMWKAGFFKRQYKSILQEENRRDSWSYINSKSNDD
Sequence (P05556 21-798): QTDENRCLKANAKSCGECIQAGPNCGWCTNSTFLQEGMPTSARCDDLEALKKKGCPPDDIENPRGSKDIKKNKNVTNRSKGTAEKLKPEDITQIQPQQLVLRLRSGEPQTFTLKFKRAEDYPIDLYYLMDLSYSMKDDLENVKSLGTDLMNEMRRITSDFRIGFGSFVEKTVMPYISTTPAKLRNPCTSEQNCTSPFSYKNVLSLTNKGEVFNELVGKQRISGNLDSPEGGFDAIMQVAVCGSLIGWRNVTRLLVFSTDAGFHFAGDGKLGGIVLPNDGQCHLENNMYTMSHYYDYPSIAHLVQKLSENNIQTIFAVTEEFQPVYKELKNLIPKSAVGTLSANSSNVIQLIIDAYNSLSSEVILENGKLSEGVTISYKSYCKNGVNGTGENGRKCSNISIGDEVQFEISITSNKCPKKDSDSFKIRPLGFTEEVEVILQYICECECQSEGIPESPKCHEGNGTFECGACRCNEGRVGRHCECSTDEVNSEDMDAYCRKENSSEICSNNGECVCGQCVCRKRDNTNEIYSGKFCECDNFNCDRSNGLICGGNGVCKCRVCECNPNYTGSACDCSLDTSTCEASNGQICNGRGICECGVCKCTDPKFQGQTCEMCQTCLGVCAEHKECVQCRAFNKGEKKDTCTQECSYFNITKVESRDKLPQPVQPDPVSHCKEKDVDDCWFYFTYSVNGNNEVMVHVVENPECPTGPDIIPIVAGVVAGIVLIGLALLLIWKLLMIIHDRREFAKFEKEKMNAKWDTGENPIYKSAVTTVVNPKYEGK
Exercise: state measured IC50 for each of the molecules provided.

IN: Quote VLA-4 (Homo sapiens, UniProt P05556+P13612) IC50 for entry CC1CCCCN1c1ncnc(N2CCCC(C(=O)N[C@@H](Cc3ccc(NC(=O)N4CCc5ccccc5C4)cc3)C(=O)O)C2)c1F (stereo partly shown) .
OUT: 0.5 to 2 µM

IN: Specify the recorded IC50 for CN(C)CCNc1ncnc(N2CCCC(C(=O)N[C@H](Cc3ccc(NC(=O)N4CCN(C)CC4)cc3)C(=O)O)C2)c1F (stereo partly shown) , system: VLA-4 (Homo sapiens, UniProt P05556+P13612).
OUT: 2 to 10 µM

IN: Print VLA-4 (Homo sapiens, UniProt P05556+P13612) IC50 for O=C(N[C@@H](Cc1ccc(NC(=O)N2CCOCC2)cc1)C(=O)O)C1CCCN(C(=O)Nc2ccc(-c3ccccc3)cc2)C1 (stereo partly shown) .
OUT: 0.5 to 2 µM

IN: Give IC50; test system VLA-4 (Homo sapiens, UniProt P05556+P13612); molecule CN1CCN(C(=O)Nc2ccc(C[C@H](NC(=O)C3CCCN(C(=O)Cc4cccs4)C3)C(=O)O)cc2)CC1 (stereo partly shown)
OUT: ≤ 0.5 µM

IN: Give IC50 for O=C(N[C@@H](Cc1ccc(-c2cc(Cl)ccc2Cl)cc1)C(=O)O)C1CCCN(C(=O)c2ccccc2Cl)C1 (stereo partly shown) tested on VLA-4 (Homo sapiens, UniProt P05556+P13612).
OUT: 2 to 10 µM

IN: // fetch IC50 for COc1ccccc1C(=O)N1CCCC(C(=O)N[C@@H](Cc2ccc(NC(=O)NC3CCN(Cc4ccccc4)CC3)cc2)C(=O)O)C1 (stereo partly shown) ; system: VLA-4 (Homo sapiens, UniProt P05556+P13612)
OUT: 0.5 to 2 µM

IN: State the measured IC50 (VLA-4 (Homo sapiens, UniProt P05556+P13612)) of O=C(NCC(c1ccccc1)c1ccccc1)Nc1ccc(C[C@H](NC(=O)C2CCCN(C(=O)c3ccccc3F)C2)C(=O)O)cc1 (stereo partly shown)
OUT: 0.5 to 2 µM

IN: Lab note: record IC50 of COc1ccccc1NC(=O)N1CCCC(C(=O)N[C@@H](Cc2ccc(NC(=O)N3CCCCC3)cc2)C(=O)O)C1 (stereo partly shown) tested on VLA-4 (Homo sapiens, UniProt P05556+P13612).
OUT: 0.5 to 2 µM

IN: Report IC50 from VLA-4 (Homo sapiens, UniProt P05556+P13612) testing of Cc1ccccc1-c1ccc(C[C@H](NC(=O)C2CCCN(S(=O)(=O)c3ccc4ccccc4c3)C2)C(=O)O)cc1 (stereo partly shown)
OUT: 0.5 to 2 µM

IN: Report its IC50 with VLA-4 (Homo sapiens, UniProt P05556+P13612) as the test system: O=C(N[C@@H](Cc1ccc(NC(=O)N2CCOCC2)cc1)C(=O)O)C1CCCN(C(=O)c2ccc(OC(F)(F)F)cc2)C1 (stereo partly shown)
OUT: 0.5 to 2 µM

IN: Name the value of IC50 reported for COc1ccc(S(=O)(=O)N2CCCC(C(=O)N[C@@H](Cc3ccc(NC(=O)NC4CCN(Cc5ccccc5)CC4)cc3)C(=O)O)C2)cc1OC (stereo partly shown) when tested on VLA-4 (Homo sapiens, UniProt P05556+P13612).
OUT: 2 to 10 µM

IN: State IC50 on VLA-4 (Homo sapiens, UniProt P05556+P13612). Entry: CN(c1ncnc(N2CCCC(C(=O)N[C@@H](Cc3ccc(NC(=O)N4CCc5ccccc5C4)cc3)C(=O)O)C2)c1F)C1CCCCC1 (stereo partly shown)
OUT: 0.5 to 2 µM

IN: Quote VLA-4 (Homo sapiens, UniProt P05556+P13612) IC50 for entry O=C(N[C@@H](Cc1ccc(NC(=O)N2CCN(C(c3ccccc3)c3ccccc3)CC2)cc1)C(=O)O)C1CCCN(C(=O)Cc2cccs2)C1 (stereo partly shown) .
OUT: ≤ 0.5 µM

Values from patent US6794386B2
